Ref: patent US8748426B2

What inhibition at 1 µM was measured for each of the following?
system.under.test: hDGAT1 (Homo sapiens, UniProt O75907)
protocol.text: In-vitro DGAT1 assay (14C oleoyl CoA, hDGAT1 microsomes from Sf9 cells)
condition.notes: read-out: % Inhibition of hDGAT1

> print(dat)
                                smiles.data                      system.under.test              metric  measurement
1  CC(C)[C@@H](C(=O)O)N1Cc2ccc(-c3ccc(NC(=O)Cc4ccccc4)cc3)cc2C1=O  hDGAT1 (Homo sapiens, UniProt O75907)  inhibition at 1 µM    10 to 50%
2  CC(C)[C@@H](C(=O)O)N1Cc2cc(-c3ccc(NC(=O)NCc4ccccc4)cc3)ccc2C1=O  hDGAT1 (Homo sapiens, UniProt O75907)  inhibition at 1 µM    10 to 50%
3  CC(C)[C@@H](C(=O)O)N1Cc2ccc(-c3ccc(NC(=O)c4cc(-c5ccc(C(F)(F)F)cc5)no4)cc3)cc2C1=O  hDGAT1 (Homo sapiens, UniProt O75907)  inhibition at 1 µM        > 50%
4  COc1ccc(NC(=O)Nc2ccc(-c3ccc4c(c3)CN([C@H](C(=O)O)C(C)C)C4=O)cc2)cc1  hDGAT1 (Homo sapiens, UniProt O75907)  inhibition at 1 µM        > 50%
5  CC(C)[C@@H](C(=O)O)N1Cc2ccc(-c3ccc(NC(=O)NCc4ccccc4)cc3)cc2C1=O  hDGAT1 (Homo sapiens, UniProt O75907)  inhibition at 1 µM    10 to 50%

Request: Which inhibition at 1 µM value belongs to "COc1ccc(NC(=S)Nc2ccc(-c3ccc4c(c3)C(=O)N([C@H](C(=O)O)C(C)C)C4)cc2)cc1" ?
Result: > 50%

---

system.under.test: hDGAT1 (Homo sapiens, UniProt O75907)
Sequence (O75907 1-488): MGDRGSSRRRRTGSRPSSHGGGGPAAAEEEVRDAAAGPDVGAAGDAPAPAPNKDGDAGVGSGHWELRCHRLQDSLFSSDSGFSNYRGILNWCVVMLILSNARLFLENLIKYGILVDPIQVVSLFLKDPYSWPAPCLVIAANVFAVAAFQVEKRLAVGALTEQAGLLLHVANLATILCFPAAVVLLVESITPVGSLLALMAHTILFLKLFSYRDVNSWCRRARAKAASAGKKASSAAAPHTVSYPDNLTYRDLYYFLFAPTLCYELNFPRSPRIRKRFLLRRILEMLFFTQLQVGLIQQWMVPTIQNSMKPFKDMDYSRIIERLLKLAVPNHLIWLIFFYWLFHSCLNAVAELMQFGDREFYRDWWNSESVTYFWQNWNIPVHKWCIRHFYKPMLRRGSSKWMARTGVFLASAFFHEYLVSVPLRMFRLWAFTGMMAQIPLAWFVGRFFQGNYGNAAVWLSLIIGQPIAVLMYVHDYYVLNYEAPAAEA
protocol.text: In-vitro DGAT1 assay (14C oleoyl CoA, hDGAT1 microsomes from Sf9 cells)
condition.notes: read-out: % Inhibition of hDGAT1
metric: inhibition at 1 µM

Here is how some compounds turned out for inhibition at 1 µM.
> print(dat)
                                   compound  measurement
1  CCCCCc1ccc(C(=O)Nc2ccc(-c3ccc4c(c3)C(=O)N([C@H](C(=O)O)C(C)C)C4)cc2F)cc1 [Example 446]        > 50%
2  CC(C)C[C@@H](C(=O)O)N1Cc2ccc(-c3ccc(NC(=O)Nc4cccc(C(F)(F)F)c4)cc3)cc2C1=O [Example 352]    10 to 50%
3  CC(C)[C@@H](C(=O)O)N1Cc2ccc(-c3ccc(NC(=O)Nc4ccc(Oc5ccccc5)cc4)cc3)cc2C1=O [Example 50]        > 50%
4  CC(C)[C@@H](C(=O)O)N1Cc2ccc(-c3ccc(NC(=O)c4ccc(C(C)(C)C)cc4)c(F)c3)cc2C1=O [Example 444]        > 50%
5  CC(C)[C@@H](C(=O)O)N1Cc2ccc(-c3ccc(NS(=O)(=O)C(C)C)cc3)cc2C1=O [Example 96]    10 to 50%
6  CC(C)[C@@H](C(=O)O)N1Cc2ccc(-c3ccc(NC(=O)c4ccc(C(C)(C)C)cc4)cc3)cc2C1=O [Example 116]        > 50%

Need inhibition at 1 µM for each of these compounds.
1. CC(C)[C@@H](C(=O)O)N1Cc2ccc(-c3ccc(NC(=O)c4ccc(F)cc4)cc3)cc2C1=O [Example 100]
2. CC(C)[C@@H](C(=O)O)N1Cc2ccc(-c3ccc(NC(=O)c4cccc(Cl)c4)cc3)cc2C1=O [Example 108]
3. CCCCCCc1ccc(C(=O)Nc2ccc(-c3ccc4c(c3)C(=O)N([C@H](C(=O)O)C(C)C)C4)cc2)cc1 [Example 182]
4. CC(C)[C@@H](C(=O)O)N1Cc2ccc(-c3ccc(NC(=O)c4ccc(C(C)(C)C#N)cc4)cc3)cc2C1=O [Example 631]
5. CC(C)[C@@H](C(=O)O)N1Cc2ccc(-c3ccc(NC(=O)Nc4ccccc4Cl)cc3C(F)(F)F)cc2C1=O [Example 416]
6. COc1cccc(NC(=O)Nc2ccc(-c3ccc4c(c3)C(=O)N([C@H](C(=O)O)C(C)C)C4)cc2)c1 [Example 26]

Result:
> 50%
> 50%
> 50%
> 50%
10 to 50%
10 to 50%
